B1: CPEB3 Ribozyme (parent)
chain: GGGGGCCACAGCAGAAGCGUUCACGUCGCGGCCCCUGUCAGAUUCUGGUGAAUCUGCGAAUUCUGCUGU

variants of: B1; assay: self-cleavage, relative activity (ratio to wild type); higher = more cleavage; co-transcriptional
Note that class boundaries on self-cleavage are low value: < 0.2; medium value: ≥ 0.2 and < 0.6; high value: ≥ 0.6

Before answering, review these 3 worked examples.
VARIANT | GROUP LABEL
C33A A51G | high value
G14C U20A | low value
G4A C34U | high value

Input: Bin this entry: U20C A60U
Output: medium value

Input: Same thing, different variant: G17U G50A
Output: medium value
